Origin of the recorded values: patent US20190127480A1

Exercise: state measured log10 koff for each of the binders provided.
molecular target: T1, Soluble heterodimeric CD3 protein (hCD3-epsilon/hCD3-delta) with either a human Fc tag (hFcΔAdp/hFc) or a … (human, UniProt P07766 23-126; P04234 22-105); experiment: SPR Biacore 25C antigen-capture
T1 construct: also called hCD3ε/δ; not shown: Fc tag: human (hFcΔAdp/hFc)
T1 sequence (P07766 23-126 limits assumed, stated change not applied, chain 1 of 2): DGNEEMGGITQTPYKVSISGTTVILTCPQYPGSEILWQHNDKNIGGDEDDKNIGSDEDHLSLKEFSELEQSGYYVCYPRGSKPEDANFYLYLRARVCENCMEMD
T1 sequence (P04234 22-105 limits assumed, stated change not applied, chain 2 of 2): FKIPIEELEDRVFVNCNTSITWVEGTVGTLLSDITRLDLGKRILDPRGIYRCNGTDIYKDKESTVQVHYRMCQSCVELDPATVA
Hi team, quick reminder: these entries are log10 of koff (s⁻¹).

Some entries whose results are on file:
Exam item: Reported log10 koff, binder H2M2777N (antibody, mouse IgG2, V domains shown, H2M: mouse IgG2 Fc, human variable regions; divalent) VH: QVQLVESGGGVVQPGRSLRLSCIASGFTFRSYGMHWVRQAPGKGLEWVAMIYYDGNNKYYADSVRGRFTISRDNSKNTLYLQMNSLRADDTAVYFCARGPGYNWLDPWGQGTLVTVSS VL: EIVMTQSPATLSVSPGERATLSCRASQSVSSNLAWYQQKPGQAPRLLIYGASTRATGIPARFSGSGSGTEFTLTISSLQSEDFAVYYCQQYNNRPLTFGGGTKVEIK : ____
Marked response: -3.49

Exam item: Reported log10 koff, binder H1H5795B (antibody, human IgG1, V domains shown, H1H: human IgG1 Fc; divalent) VH: EVQLVESGAEVKKPGASVKVSCKTSGYSFIGYYIHWMRQAPGQGLEWMGWINPKSGVTNYAQRFQGRVTMTRDTSISTAYMELSRLKSDDTAVYFCARMGDGAVFDFWGQGTLVTVSS VL: DIQLTQSPSSLSASVGDRVTITCRASQRISSFLNWYQQKPGKVPKLLIYTASNLQNGVPSRFSGTGSGTDFTLTISSLQPEDFATYYCQQSYRTPLTFGGGTKVDIKR : ____
Marked response: -3.64

Exam item: Reported log10 koff, binder H2M2690N (antibody, mouse IgG2, V domains shown, H2M: mouse IgG2 Fc, human variable regions; divalent) VH: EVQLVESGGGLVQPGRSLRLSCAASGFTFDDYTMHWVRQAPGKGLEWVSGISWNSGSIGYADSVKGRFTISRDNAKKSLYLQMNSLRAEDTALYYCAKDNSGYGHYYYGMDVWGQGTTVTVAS VL: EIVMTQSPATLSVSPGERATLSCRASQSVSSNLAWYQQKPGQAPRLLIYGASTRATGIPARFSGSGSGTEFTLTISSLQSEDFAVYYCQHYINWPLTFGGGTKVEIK : ____
Marked response: -5.20

Batch of 2 binders: report log10 koff for each.
1. H1H5790B (antibody, human IgG1, V domains shown, H1H: human IgG1 Fc; divalent) VH: EVQLVESGGGVVQPGRSLRLSCAASGFTFSYYGMHWVRQAPGKGLEWVAVISFDGKNKYYADSVMGRFTISRDNSKNTLYLQMNSLRAEDSAVFFCARSYDILTGYGAGYSYHYGMDVWGQGTTVTVSS VL: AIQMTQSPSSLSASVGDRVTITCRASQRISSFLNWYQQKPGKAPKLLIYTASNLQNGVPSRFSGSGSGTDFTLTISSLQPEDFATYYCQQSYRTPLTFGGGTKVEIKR
2. H2M2778N (antibody, mouse IgG2, V domains shown, H2M: mouse IgG2 Fc, human variable regions; divalent) VH: EVQLVESGGGLVQPGRSLRLSCAASGFTFDDYSMHWVRQAPGKGLEWVSGISWNSRSIDYADSVKGRFTISRDNAKNSLYLQMNSLRAEDTALYYCVKDNSGYGRYYYYGMDVWGQGTTVSVSS VL: KIVMTQSPATLSVSPGERATLSCRASQSVSGNLAWYQQKPGQAPRLLIYGASTRATSIPARFSGSGSGTEFTLTISSLQSEDFAVYFCQHYYNWPLTFGGGTKVEIR

Marked response:
-3.63
-5.18
